Numbers sourced from patent US20130136748A1.

Measurement target: T1, hHER3 full length (human, UniProt P21860 20-1342)
T1 construct: On transfected CHO, CHO HER2/HER3, CHO EGFR/HER3 or CHO Flp-In cells; endogenous HER3 of MCF-7 and MDA-MB468 cells in the signalling assays; also called human HER3
Assay summary: FACS, 400 nM, competitor 17C08-biotin
Listed binders paired with reported % competition
Provide the reading as a plain figure in %.

Some solved cases for reference:
Binder	Numeric result
21B02 (VHH) VHH: EVQLVESGGGLVQPGGSLRLSCAASGFTFDYYTIGWFRQAPGKEREGVSCISSRDGDSYYADSVKGRFTISRDNAKNTAYLQMNSLKPEDTAVYYCAASASDYGLGLELFHDEYNYWGQGTQVTVSS	17
04C07 (VHH, also called HER3MS04C07; HER3MS004C07) VHH: EVQLVESGGGLVQAGGSLRLSCAASGFTFSSYPMSWVRQAPGKGPAWVSTVSPGGITTSYADSVKGRFTISRDNAKNTLYLQMNSLKPEDTAVYYCLRDLNNRGQGTQVTVSS	15
18G11 (VHH, c-myc, His6-tagged form as expressed; also called HER3MS18G11; HER3MS018G11) VHH: EVQLVESGGGLVQPGGSLRLSCAASGTLFKINAMGWYRQAPGKRRELVALITSSDTTDYAESVEGRFTISRDNTWNAVYLQMNSLKPEDTAVYYCHSDHYSMGVPEKRVIMYGQGTQVTVSS	74
18B05 (VHH) VHH: EVQLVESGGGLVQAGGSLRLSCAASGLTFGSAPMGWYRQAPGKERELVAYISGDERIWYGDSVKGRFTISRDTTKNTLYLQMNSLKPEDTAVYYCVSDVKVRHWGQGTQVTVSS	0
17B05 (VHH, also called HER3MS17B05; HER3MS017B05) VHH: EVQLVESGGGLVQPGGSLRLSCAASGSIGGLNAMAWYRQAPGKERELVAGIFGVGSTRYADSVKGRFTISRDIAKNTVFLQMNSLNSEDTAVYYCRMSSVTRGSSDYWGQGTQVTVSS	0

-- ask # input binder: 34A04 (VHH) VHH: EVQLVESGGGLVQAGGSLRLSCAASGFTFDDYTIGWFRQAPGKEREEISCISNNDGSTYYTNSVKGRFTISSDNAKNTVYLQMNSLKPEDTAVYYCAASPHGCWYDLIPLQADFGSWGQGTQVTVSS ; wanted: its % competition
-- reply 14

-- ask # input binder: 18F05 (VHH, also called 18F5) VHH: EVQLVESGGGLVQPGGSLRLSCVASGFTFSSYWMYWVRQAPGKGVEWVSAISPGGVERYTDSVKGRFTISRDNAKNTLYLQMNSLKSEDTAMYYCARLTSFATPESQGTQVTVSS ; wanted: its % competition
-- reply 0

-- ask # input binder: 34C07 (VHH, c-myc, His6-tagged form as expressed; also called 34C7; HER3MS34C07) VHH: EVQLVESGGGLVQPGGSLGLSCVASGSIFRINAMAWYRQAPGKQRELVAEITAGGSTNYADSVKGRFTISVDNAWNTLYLQMNSLKVEDTAVYYCNLDHYTTWDRRSAYWGQGTQVTVSS ; wanted: its % competition
-- reply 56
